N-carbamoyl-L-aspartate overview
# Test system: P. falciparum 3D7 trophozoites
# protocol.summary: Metabolomic fingerprint profiling LC-MS
# Type: cell-based, Plasmodium falciparum
# assay.context: S2 Table Metabolomics; metabolite N-carbamoyl-L-aspartate

- molecule: "O=C(NCC(c1ccsc1)N1CCCCCC1)c1ccc(C(F)(F)F)cc1 (stereo not drawn)"
  N-carbamoyl-L-aspartate: 1.501
- molecule: "CCOC(=O)c1cnc2ccc(CC)cc2c1O"
  N-carbamoyl-L-aspartate: 2.971
- molecule: "CCCN(CCC)CC(O)COc1ccccc1C(=O)Nc1ccccc1 (stereo not drawn)"
  N-carbamoyl-L-aspartate: -1.358
- molecule: "Cc1ccc(N2C3c4ccccc4N(S(=O)(=O)c4ccc(C)cc4)C2c2ccccc2N3S(=O)(=O)c2ccc(C)cc2)cc1"
  N-carbamoyl-L-aspartate: 1.35
- molecule: "CCOC(=O)c1ccc2nc(-c3ccccc3)cc(O)c2c1"
  N-carbamoyl-L-aspartate: 4.351
- molecule: "Cc1ccc(-c2cc3c(nn2)-c2ccccc2C3=O)cc1"
  N-carbamoyl-L-aspartate: 3.794
- molecule: "CN(C)c1ccc(C=Cc2nc(=O)c3ccccc3o2)cc1"
  N-carbamoyl-L-aspartate: 2.985
- molecule: "COc1ccc(NC(=O)C2c3ccccc3C(=O)N(CC(C)C)C2c2cccs2)cc1 (stereo not drawn)"
  N-carbamoyl-L-aspartate: -2.466
- molecule: "CCN(CC)CCNc1ncnc2c1[nH]c1ccc(Cl)cc12"
  N-carbamoyl-L-aspartate: 1.148
- molecule: "COc1ccc(-n2ccnc2SCC(=O)Nc2cc(C)ccc2C)c(OC)c1"
  N-carbamoyl-L-aspartate: 3.802
- molecule: "CCc1ccc(Nc2cc(C)c3ccc(O)cc3n2)cc1"
  N-carbamoyl-L-aspartate: -1.956
- molecule: "CCN1CCN(Cc2ccc(NC(=O)c3cc4ccc5cccnc5c4[nH]3)cc2)CC1"
  N-carbamoyl-L-aspartate: 0.01627
- molecule: "Cc1cc(Nc2ccc(Cl)cc2)n2nc(C(F)(F)F)nc2n1"
  N-carbamoyl-L-aspartate: 4.681
- molecule: "Cc1cc(NC(=O)C2c3ccccc3C(=O)N(CC(C)C)C2c2cccs2)no1 (stereo not drawn)"
  N-carbamoyl-L-aspartate: -2.585
- molecule: "COc1ccc(C2=C(c3ccc(OC)cc3)C3(c4ccccc4)C(=O)C2(c2ccccc2)C2C(=O)N(c4ccc(C)cc4)C(=O)C23)cc1 (stereo not drawn)"
  N-carbamoyl-L-aspartate: -0.002224
- molecule: "Cc1ccc(N2C(=O)C3C(C2=O)C2(c4ccccc4)C(=O)C3(c3ccccc3)C(c3ccccc3)=C2c2ccccc2)cc1 (stereo not drawn)"
  N-carbamoyl-L-aspartate: -0.2951
- molecule: "CC(C)(C)c1ccc(O)c(CNC2CCCCC2)c1"
  N-carbamoyl-L-aspartate: -1.546
- molecule: "COc1ccc(-c2nc3cc(Cc4ccc5[nH]c(-c6ccc(OC)cc6)nc5c4)ccc3[nH]2)cc1"
  N-carbamoyl-L-aspartate: -0.09766
